# Lookup of reported Kd keyed by entry
Study system: T1, Kap104p, P38217
T1 chain: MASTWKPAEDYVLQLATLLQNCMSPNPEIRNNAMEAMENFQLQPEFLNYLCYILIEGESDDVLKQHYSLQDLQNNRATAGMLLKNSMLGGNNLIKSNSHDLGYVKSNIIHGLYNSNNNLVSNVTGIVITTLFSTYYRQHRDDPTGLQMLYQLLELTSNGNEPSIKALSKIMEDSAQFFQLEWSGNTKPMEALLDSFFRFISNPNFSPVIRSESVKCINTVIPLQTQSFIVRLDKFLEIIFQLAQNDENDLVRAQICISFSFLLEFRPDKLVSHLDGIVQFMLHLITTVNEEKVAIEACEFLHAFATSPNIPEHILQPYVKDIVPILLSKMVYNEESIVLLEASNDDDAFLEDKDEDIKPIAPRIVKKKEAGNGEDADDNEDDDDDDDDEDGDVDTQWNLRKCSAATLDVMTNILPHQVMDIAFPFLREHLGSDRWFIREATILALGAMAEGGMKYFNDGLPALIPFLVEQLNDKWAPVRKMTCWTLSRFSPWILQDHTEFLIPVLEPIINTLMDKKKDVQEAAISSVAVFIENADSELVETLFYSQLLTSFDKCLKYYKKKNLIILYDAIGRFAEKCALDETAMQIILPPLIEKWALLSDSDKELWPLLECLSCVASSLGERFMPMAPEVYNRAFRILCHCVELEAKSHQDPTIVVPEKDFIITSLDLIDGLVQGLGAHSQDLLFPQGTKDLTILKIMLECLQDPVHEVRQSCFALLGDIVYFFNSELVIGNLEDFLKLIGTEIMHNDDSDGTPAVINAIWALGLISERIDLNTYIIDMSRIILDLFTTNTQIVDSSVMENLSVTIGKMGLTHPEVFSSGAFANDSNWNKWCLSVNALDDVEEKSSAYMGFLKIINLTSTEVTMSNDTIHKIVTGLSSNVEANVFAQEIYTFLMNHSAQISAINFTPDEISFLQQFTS
Assay: ITC
Experimental parameters: chain shown with the change;; parent: 32 ± 16

Please review the entries below; each comes with its answer.
1. RDRNDRDRDYNHAAAANHRRNGRGGRGGYNRRNNGYHPYNR (domain or fragment, S. cerevisiae, UniProt Q99383 494-534, looked up, Hrp1p NLS, residues 494-534; source: E. coli BL21(DE3), purified (amylose resin, cation exchange)) [MBP–Hrp1p NLS 506RSGG509/AAAA] ... 42 nM
2. RDRNDRDRDYNHRSGGNHAAAARGGRGGYNRRNNGYHPYNR (domain or fragment, S. cerevisiae, UniProt Q99383 494-534, looked up, Hrp1p NLS, residues 494-534; source: E. coli BL21(DE3), purified (amylose resin, cation exchange)) [MBP–Hrp1p NLS 512RRNG515/AAAA] ... 48 nM
3. RDRNDRDRDYNHRSGGNHRRNGRGGRGGYNAANNGYHPYNR (domain or fragment, S. cerevisiae, UniProt Q99383 494-534, looked up, Hrp1p NLS, residues 494-534; source: E. coli BL21(DE3), purified (amylose resin, cation exchange)) [MBP–Hrp1p NLS 524RR525/AA] ... 62 nM
4. RDRNDRDRDYNHRSGGNHRRNGRGGAAAAARRNNGYHPYNR (domain or fragment, S. cerevisiae, UniProt Q99383 494-534, looked up, Hrp1p NLS, residues 494-534; source: E. coli BL21(DE3), purified (amylose resin, cation exchange)) [MBP–Hrp1p NLS 519RGGYN523/AAAAA] ... 17 nM

// next entry
// recorded Kd for RDRNDRDRDYNHRSGGNHRRNGAAARGGYNRRNNGYHPYNR (domain or fragment, S. cerevisiae, UniProt Q99383 494-534, looked up, Hrp1p NLS, residues 494-534; source: E. coli BL21(DE3), purified (amylose resin, cation exchange)) [MBP–Hrp1p NLS 516RGG518/AAA] : 24 nM
